Hey, just so you know, these numbers are from the supplement of paper PMC6555819.

Tested on: PPARg:RXRa 90nM:30nM, anti-RXR (NR concentration 90 nM, RXRa partner concentration 30 nM)
EXPERIMENTAL PROTOCOL: PBM binding z-score (relative to random genomic background probes); higher = stronger binding; sequences stand for … in GC…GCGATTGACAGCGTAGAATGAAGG
RECORDED METRIC: PBM binding z-score
The answer should be a number; do not append a unit.

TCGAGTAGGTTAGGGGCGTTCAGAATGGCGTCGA	1.56
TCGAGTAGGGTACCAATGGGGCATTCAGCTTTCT	0.836
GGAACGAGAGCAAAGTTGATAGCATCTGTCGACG	5.43
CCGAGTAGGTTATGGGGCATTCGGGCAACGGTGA	4.57
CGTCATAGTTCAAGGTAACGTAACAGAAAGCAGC	1.3
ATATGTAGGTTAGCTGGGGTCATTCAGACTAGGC	4.46
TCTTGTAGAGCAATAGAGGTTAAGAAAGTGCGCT	1.55
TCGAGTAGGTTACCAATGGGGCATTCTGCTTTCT	0.902
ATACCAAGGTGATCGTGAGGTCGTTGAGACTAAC	-0.0872
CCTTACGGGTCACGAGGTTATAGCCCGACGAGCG	5.71

In plain terms, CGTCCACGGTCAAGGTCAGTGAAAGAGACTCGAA has a documented PBM binding z-score of 0.438

In plain terms, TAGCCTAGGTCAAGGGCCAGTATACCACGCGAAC has a documented PBM binding z-score of 3.59
